These data points were gathered from patent US10723741B1.

Tested on: Enterococcus faecium ATCC 700221 (VRE)
protocol: Broth microdilution MIC, E. faecium ATCC 700221 (VRE)
Type: cell-based
measurementParameters: Enterococcus faecium; broth microdilution, 37° C., 20 hours; read-out: MIC E. faecium ATCC 700221 (VRE)
quantityKind: MIC (µg/mL)
Numbers only, in µg/mL.

Below, each entry is followed by its recorded MIC result.
smilesCode	assaySystem	quantityKind	value
CN1CCN(CCn2ncc3nc(NCc4ccc(Cl)c(Cl)c4)[nH]c(=O)c32)CC1	Enterococcus faecium ATCC 700221 (VRE)	MIC	4
O=c1[nH]c(NCc2ccc(Cl)c(Cl)c2)nc2cnn(CCOC3CCS(=O)(=O)CC3)c12	Enterococcus faecium ATCC 700221 (VRE)	MIC	4
O=c1[nH]c(NCc2ccc(Cl)c(Cl)c2)nc2cn[nH]c12	Enterococcus faecium ATCC 700221 (VRE)	MIC	4

Quick one: give me MIC for each item below, same order please.
1. O=c1[nH]c(NCc2ccc(F)c(F)c2)nc2c(F)nn(Cc3cocn3)c12
2. O=C(O)CCCCn1ncc2nc(NCc3ccc(Cl)c(Cl)c3)[nH]c(=O)c21
3. Cl.O=c1[nH]c(NCc2ccc(Cl)c(Cl)c2)nc2cn(Cn3cncn3)nc12
4. CC(C)(C)NCCn1ncc2nc(NCc3ccc(Cl)c(Cl)c3)[nH]c(=O)c21
5. O=c1[nH]c(NCc2ccc(Cl)c(Cl)c2)nc2cnn(Cc3coc(CO)n3)c12
6. CN(C)CCOCCn1ncc2nc(NCc3ccc(Cl)c(Cl)c3)[nH]c(=O)c21.Cl

1: 4; 2: 4; 3: 64; 4: 8; 5: 8; 6: 8

---

Provide the recorded MIC for the entries that follow.
System: Enterococcus faecalis ATCC 29212
protocol: Broth microdilution MIC, E. faecalis ATCC 29212
Assay type: cell-based
measurementParameters: ATCC29212, broth microdilution, 37° C., 20 hours, read-out: MIC E. faecalis ATCC 29212
One number for each entry, in µg/mL.

Take each entry in turn and give its MIC.
1. [2H]C([2H])(Nc1nc2cnn(CCOCCO)c2c(=O)[nH]1)c1ccc(Cl)c(Cl)c1 [Compound 291]
2. Cl.Cl.O=c1[nH]c(NCc2ccc(Cl)c(Cl)c2)nc2cnn(C3CCN(c4ccncc4)C3)c12 (stereo not drawn) [Compound 180]
3. Cl.O=c1[nH]c(NCc2ccc(Cl)c(Cl)c2)nc2cnn(CCN3CCOCC3)c12 [Compound 57]

[16, 8, 4]

---

Tested on: Enterococcus faecalis ATCC 29212
protocol: Broth microdilution MIC, E. faecalis ATCC 29212
Assay type: cell-based
measurementParameters: ATCC29212, broth microdilution, 37° C., 20 hours, read-out: MIC E. faecalis ATCC 29212
Text: Bacteria tested are Staphylococcus aureus NRS384 (a methicillin-resistant Staphylococcus aureus, MRSA), Staphylococcus aureus ATCC 29213 (a methicillin-sensitive Staphylococcus aureus, MSSA), Streptococcus pneumoniae ATCC 49619, Enterococcus faecalis ATCC 29212, Enterococcus faecium ATCC 700221 (a vancomycin-resistant enterococcus, VRE), Bacillus subtilis ATCC 6633, and Escherichia coli ATCC 25922. […]
Provide the recorded MIC for the entries that follow.

compound	quantityKind	value
Cl.O=c1[nH]c(NCc2ccc(Cl)c(Cl)c2)nc2cnn(C3CCN(S(=O)(=O)c4cccnc4)CC3)c12 [Compound 156]	MIC	> 64 µg/mL
Cn1ncc2nc(NCc3cccc(Cl)c3Cl)[nH]c(=O)c21 [Compound 29]	MIC	> 64 µg/mL

# context switch: different compound, same MIC
Fill in MIC for record O=C(O)COCCn1ncc2nc(NCc3ccc(Cl)c(Cl)c3)[nH]c(=O)c21 [Compound 283]
> 64 µg/mL

---

System: Enterococcus faecium ATCC 700221 (VRE)
protocol: Broth microdilution MIC, E. faecium ATCC 700221 (VRE)
Type: cell-based
measurementParameters: Enterococcus faecium; broth microdilution, 37° C., 20 hours; read-out: MIC E. faecium ATCC 700221 (VRE)
Give MIC for every item shown.
Numbers only, in µg/mL.

Some solved entries appear below for comparison.
compound	quantityKind	value
CN(C)C(=O)C1CN(CCn2ncc3nc(NCc4ccc(Cl)c(Cl)c4)[nH]c(=O)c32)CCO1.Cl (centres unmarked) [Compound 72]	MIC	8
O=c1[nH]c(NCc2ccc(Cl)c(Cl)c2)nc2cnn(C3CCNCC3)c12 [Compound 152]	MIC	8
Cl.O=c1[nH]c(NCc2ccc(Cl)c(Cl)c2)nc2cnn(Cc3coc(C4CCCNC4)n3)c12 (centres unmarked) [Compound 173]	MIC	32
COCCOCCn1ncc2nc(NCc3ccc(Cl)c(Cl)c3)[nH]c(=O)c21 [Compound 136]	MIC	2

Identify the reported MIC for the following entry. Cl.Cl.O=c1[nH]c(NCc2ccc(Cl)c(Cl)c2)nc2cnn(C3CCN(Cc4ccccn4)CC3)c12 [Compound 244]
2

---

Tested on: Streptococcus pneumoniae ATCC 49619
protocol: Broth microdilution MIC, S. pneumoniae ATCC 49619
Assay type: cell-based
measurementParameters: ATCC49619, broth microdilution, 37° C., 20 hours, read-out: MIC S. pneumoniae ATCC 49619
Give measured MIC for each item. Keep answers brief.

compound	assaySystem	quantityKind	value
CCc1[nH]c(CNc2nc3cnn(C)c3c(=O)[nH]2)nc1Cl.Cl [Compound 38]	Streptococcus pneumoniae ATCC 49619	MIC	> 64 µg/mL

// for each compound below, give its MIC
1. COCCn1ncc2nc(NCc3ccc(Cl)c(Cl)c3)[nH]c(=O)c21 [Compound 126]
2. Cl.O=C(O)C1CC(n2ncc3nc(NCc4ccc(Cl)c(Cl)c4)[nH]c(=O)c32)CN1C(=O)c1ccncc1 (stereo not shown) [Compound 150]

1: 2 µg/mL; 2: > 64 µg/mL

Fill in MIC for record Cn1ncc2nc(NCc3cscn3)[nH]c(=O)c21 [Compound 15]
> 64 µg/mL

---

Test system: Streptococcus pneumoniae ATCC 49619
protocol: Broth microdilution MIC, S. pneumoniae ATCC 49619
Assay type: cell-based
measurementParameters: ATCC49619, broth microdilution, 37° C., 20 hours, read-out: MIC S. pneumoniae ATCC 49619
Kindly supply the reported MIC values for the records listed here.

molecule	quantityKind	value
O=C(NCCn1ncc2nc(NCc3ccc(Cl)c(Cl)c3)[nH]c(=O)c21)c1cnoc1 [Compound 86]	MIC	> 64 µg/mL
COCCCCCn1ncc2nc(NCc3ccc(Cl)c(Cl)c3)[nH]c(=O)c21 [Compound 131]	MIC	4 µg/mL
O=c1c2c(cnn2CCOCCO)nc(NCc2ccc(Cl)c(Cl)c2)n1COP(=O)(O)O [Compound 320]	MIC	> 64 µg/mL

// batch mode: one MIC value per listed entry
1. Cl.O=C(c1ccccn1)N1CCC(n2ncc3nc(NCc4ccc(Cl)c(Cl)c4)[nH]c(=O)c32)C1 (stereo not shown) [Compound 257]
2. COCCOC/C=C/Cn1ncc2nc(NCc3ccc(Cl)c(Cl)c3)[nH]c(=O)c21 [Compound 193]

["4 µg/mL", "4 µg/mL"]

---

Test system: Enterococcus faecium ATCC 700221 (VRE)
protocol: Broth microdilution MIC, E. faecium ATCC 700221 (VRE)
Assay type: cell-based
measurementParameters: Enterococcus faecium; broth microdilution, 37° C., 20 hours; read-out: MIC E. faecium ATCC 700221 (VRE)
quantityKind: MIC (µg/mL)
Answers are plain numbers, in µg/mL.

compound	value
Cc1cc(CNc2nc3c(F)nn(CCOCCO)c3c(=O)[nH]2)ccc1F	16

// input: 4 compounds below; output: MIC for each
1. O=c1[nH]c(NCc2ccc(Cl)c(Cl)c2)nc2cnn(CC3CCO3)c12 (stereo not shown)
2. O=c1[nH]c(NCc2ccc(Cl)c(Cl)c2)nc2cnn(CCc3ncccn3)c12
3. Cc1ccncc1C(=O)N1CCC(n2ncc3nc(NCc4ccc(Cl)c(Cl)c4)[nH]c(=O)c32)CC1.Cl
4. O=c1[nH]c(NCc2ccc(F)c(F)c2)nc2c(Cl)nn(CCOCCO)c12

[2, 4, 2, 16]

Give MIC for each of the items listed below.
1. O=C1CC(Cn2ncc3nc(NCc4ccc(Cl)c(Cl)c4)[nH]c(=O)c32)CN1CCO (stereo not shown)
2. O=c1[nH]c(NCc2ccc(Cl)c(Cl)c2)nc2cnn(CCOCCOCCOCCO)c12
3. N#Cc1nn(CCOCCO)c2c(=O)[nH]c(NCc3ccc(Cl)c(Cl)c3)nc12

1: 16; 2: 8; 3: 0.5

I need MIC for every entry listed below, if you could help.
1. Cl.O=c1[nH]c(NCc2ccc(Cl)c(Cl)c2)nc2cnn(Cc3ccccn3)c12
2. Cl.Cl.O=c1[nH]c(NCc2ccc(Cl)c(Cl)c2)nc2cnn(C3CCN(CC4CCNCC4)CC3)c12
3. C[C@@H](O)Cn1ncc2nc(NCc3ccc(Cl)c(Cl)c3)[nH]c(=O)c21

4
32
2

---

Test system: Enterococcus faecalis ATCC 29212
protocol: Broth microdilution MIC, E. faecalis ATCC 29212
Format: cell-based
measurementParameters: ATCC29212, broth microdilution, 37° C., 20 hours, read-out: MIC E. faecalis ATCC 29212
quantityKind: MIC

Field: example entries. Status: answers known.
compound	assaySystem	MIC
Cn1ncc2nc(NCc3c(Cl)cccc3Cl)[nH]c(=O)c21 [Compound 30]	Enterococcus faecalis ATCC 29212	> 64 µg/mL
COc1cc(CNc2nc3cnn(C)c3c(=O)[nH]2)ccc1Cl [Compound 34]	Enterococcus faecalis ATCC 29212	> 64 µg/mL

Proceeding to the next compound to report its MIC.
Return the recorded MIC value; entry: O=C(NCCn1ncc2nc(NCc3ccc(Cl)c(Cl)c3)[nH]c(=O)c21)c1cnoc1 [Compound 86]
> 64 µg/mL
